# Test system: rat primary hepatocytes
Mark Met for MMP assays efficacy (%) Rat Hepatocytes under -80%, Not met if at or over.

Lab log: compare recorded MMP assays efficacy (%) Rat Hepatocytes with -80%; is it strictly lower for C[C@H]1CCCC(=O)CCC/C=C/c2cc(O)cc(O)c2C(=O)O1 ?
Not met

Lab log: compare recorded MMP assays efficacy (%) Rat Hepatocytes with -80%; is it strictly lower for N=C(N)NN=C1C=CC(=NNC(N)=S)C=C1 ?
Not met

Lab log: compare recorded MMP assays efficacy (%) Rat Hepatocytes with -80%; is it strictly lower for NC(=O)Oc1ccc(Cc2ccccc2)cc1 ?
Not met

Lab log: compare recorded MMP assays efficacy (%) Rat Hepatocytes with -80%; is it strictly lower for COC(=O)N(OC)c1ccccc1COc1ccn(-c2ccc(Cl)cc2)n1 ?
Met

Lab log: compare recorded MMP assays efficacy (%) Rat Hepatocytes with -80%; is it strictly lower for O=[N+]([O-])c1ccc2ncccc2c1 ?
Not met

Lab log: compare recorded MMP assays efficacy (%) Rat Hepatocytes with -80%; is it strictly lower for Oc1ccc2ccccc2c1N=Nc1ccccc1 ?
Met

Lab log: compare recorded MMP assays efficacy (%) Rat Hepatocytes with -80%; is it strictly lower for O=C(Nc1cccc([N+](=O)[O-])c1)c1cc2ccccc2cc1O ?
Met

Lab log: compare recorded MMP assays efficacy (%) Rat Hepatocytes with -80%; is it strictly lower for OC1(c2ccc(Cl)c(C(F)(F)F)c2)CCN(CCCC(c2ccc(F)cc2)c2ccc(F)cc2)CC1 ?
Not met

Lab log: compare recorded MMP assays efficacy (%) Rat Hepatocytes with -80%; is it strictly lower for Nc1ccccc1N ?
Not met

Lab log: compare recorded MMP assays efficacy (%) Rat Hepatocytes with -80%; is it strictly lower for O=C(Nc1ccccc1)Nc1ccccc1 ?
Not met

Lab log: compare recorded MMP assays efficacy (%) Rat Hepatocytes with -80%; is it strictly lower for CC(=O)Oc1ccccc1C(=O)Nc1ncc([N+](=O)[O-])s1 [Nitazoxanide] ?
Met

Lab log: compare recorded MMP assays efficacy (%) Rat Hepatocytes with -80%; is it strictly lower for CC(C)CC(=O)C1C(=O)c2ccccc2C1=O ?
Met

Lab log: compare recorded MMP assays efficacy (%) Rat Hepatocytes with -80%; is it strictly lower for Cc1ccc(S(=O)(=O)NC2CCCCC2)cc1 [N-Cyclohexyl-4-methyl benzenesulfonamide] ?
Not met

Lab log: compare recorded MMP assays efficacy (%) Rat Hepatocytes with -80%; is it strictly lower for Oc1ccccc1-c1ccccc1 ?
Not met

====

Provide the recorded MMP assays efficacy (%) Rat Hepatocytes for the entries that follow.
# Test system: rat primary hepatocytes
# Test protocol: MMP assay in rat primary hepatocytes
# Particulars: rat hepatocytes; mean ± SD of three experiments
# output: bare number, implied unit %

MMP assays efficacy (%) Rat Hepatocytes for COc1cc2c(cc1OC)-c1cc3ccc(OC)c(OC)c3c[n+]1CC2 [Palmatine chloride hydrate] ?
-72

MMP assays efficacy (%) Rat Hepatocytes for O=C1c2c(O)ccc(Nc3ccc(CCO)cc3)c2C(=O)c2c([N+](=O)[O-])ccc(O)c21 ?
-72

MMP assays efficacy (%) Rat Hepatocytes for Nc1cccc(N)n1 ?
-75

MMP assays efficacy (%) Rat Hepatocytes for CC(=O)OCCN(CCOC(C)=O)c1ccc(N=Nc2ccc([N+](=O)[O-])cc2C#N)cc1 ?
-59

MMP assays efficacy (%) Rat Hepatocytes for CCC(=O)O[C@]1(C(=O)CCl)[C@@H](C)C[C@H]2[C@@H]3C[C@H](F)C4=CC(=O)C=C[C@]4(C)[C@@]3(F)[C@@H](O)C[C@@]21C [Halobetasol propionate] ?
-82

MMP assays efficacy (%) Rat Hepatocytes for Oc1cc(O)c(Cl)cc1Cl ?
-37

MMP assays efficacy (%) Rat Hepatocytes for CSc1nc2cc(Cl)c(Oc3cccc(Cl)c3Cl)cc2[nH]1 ?
-91

MMP assays efficacy (%) Rat Hepatocytes for Cc1cccc(Nc2ccccc2)c1 ?
-74

MMP assays efficacy (%) Rat Hepatocytes for CCCCCCCCCCCC[n+]1ccc2ccccc2c1.Cc1ccc(S(=O)(=O)[O-])cc1 [2-Dodecylisoquinolinium tosylate] ?
-95

MMP assays efficacy (%) Rat Hepatocytes for CCc1cc(SCc2sc(-c3ccc(C(F)(F)F)cc3)nc2CN2CCN(c3ccc(OC)cc3)CC2)ccc1OCC(=O)O ?
-116

MMP assays efficacy (%) Rat Hepatocytes for CCn1c2ccccc2c2cc(N)ccc21.Cl [3-Amino-9-ethylcarbazole hydrochloride] ?
-53

MMP assays efficacy (%) Rat Hepatocytes for COc1cc(C(=O)NS(=O)(=O)c2ccccc2C)ccc1Cc1cn(C)c2ccc(NC(=O)OC3CCCC3)cc12 ?
-114
